We begin with a simple list: items and their reported inhibition at 1 µM.
target.or.system: human ANO6 (Homo sapiens)
Construct: expressed in transfected cells
Sequence (Q4KMQ2 1-931 isoform Q4KMQ2-2): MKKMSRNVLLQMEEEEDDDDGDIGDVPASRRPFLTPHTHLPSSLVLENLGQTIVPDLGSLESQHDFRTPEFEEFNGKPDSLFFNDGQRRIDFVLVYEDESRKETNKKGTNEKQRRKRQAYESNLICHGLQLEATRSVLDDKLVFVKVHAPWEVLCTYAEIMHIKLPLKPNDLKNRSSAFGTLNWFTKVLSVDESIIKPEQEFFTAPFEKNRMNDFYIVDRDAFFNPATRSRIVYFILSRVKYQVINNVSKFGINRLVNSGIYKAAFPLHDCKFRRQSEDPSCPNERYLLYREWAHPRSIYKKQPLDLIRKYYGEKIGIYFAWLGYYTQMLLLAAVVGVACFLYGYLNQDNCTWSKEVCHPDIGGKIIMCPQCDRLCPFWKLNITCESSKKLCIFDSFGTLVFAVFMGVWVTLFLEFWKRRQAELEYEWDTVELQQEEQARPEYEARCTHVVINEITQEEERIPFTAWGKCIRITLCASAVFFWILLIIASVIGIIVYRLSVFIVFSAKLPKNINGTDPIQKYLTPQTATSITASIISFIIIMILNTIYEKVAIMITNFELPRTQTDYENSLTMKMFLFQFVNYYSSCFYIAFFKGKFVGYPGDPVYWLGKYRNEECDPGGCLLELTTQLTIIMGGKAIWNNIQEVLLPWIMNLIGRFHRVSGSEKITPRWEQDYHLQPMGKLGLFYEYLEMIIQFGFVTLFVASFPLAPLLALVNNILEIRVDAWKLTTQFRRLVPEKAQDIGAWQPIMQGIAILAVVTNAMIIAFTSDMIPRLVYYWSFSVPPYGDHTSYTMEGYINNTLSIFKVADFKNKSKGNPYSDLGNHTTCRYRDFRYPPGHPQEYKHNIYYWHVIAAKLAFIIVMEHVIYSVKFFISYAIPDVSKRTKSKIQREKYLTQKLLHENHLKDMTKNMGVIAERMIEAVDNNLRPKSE
method: LACT C2 assay (phosphatidylserine scramblase function assay)
Assay type: cell-based
measurement.conditions: test compound 1 μM, FRT cells expressing human ANO6, 10 μM ionomycin, read-out: Inhibition Level 1 μM

Previously resolved entries follow.
>>> value_measured("CNC(=O)c1cccc(Nc2ccc(-c3ccccc3)nn2)c1")
"< 30%"
>>> value_measured("Cc1ccc(CNC(=O)c2cccc(Nc3ccc(-c4cccnc4)nn3)c2)o1")
"< 30%"
>>> value_measured("CCCCCCNC(=O)c1cccc(Nc2ccc(-c3ccccc3)nn2)c1")
"≥ 60%"
>>> value_measured("O=C(NCc1ccc(F)c(Cl)c1)c1cccc(Nc2ccc(-c3ccccc3)nn2)c1")
"≥ 60%"
>>> value_measured("O=C(O)c1ccc(CCNC(=O)c2cccc(Nc3ncc(-c4cccc(F)c4)cn3)c2)cc1")
"< 30%"
>>> value_measured("CN1CCN(c2cc(F)ccc2CNC(=O)c2cccc(Nc3ccc(-c4ccccc4)nn3)c2)CC1")
"30 to 60%"
>>> value_measured("O=C(NCc1ccoc1)c1cccc(Nc2ccc(-c3ccccc3)nn2)c1")
"< 30%"
>>> value_measured("COc1cc(F)ccc1CNC(=O)c1cccc(Nc2ccc(-c3ccccc3)nn2)c1")
"30 to 60%"
>>> value_measured("O=C(NCc1ccc(Cl)cc1Cl)c1cccc(Nc2ncc(-c3cccc(F)c3)cn2)c1")
"30 to 60%"
>>> value_measured("Nc1ccccc1NC(=O)c1cccc(Nc2ccc(-c3cccc(F)c3)cn2)c1")
"30 to 60%"

Here is the next item to consider.
Measured on human ANO6 (Homo sapiens), O=C(Nc1ccc(Cl)c(Cl)c1)c1cccc(Nc2ncc(-c3cccc(F)c3)cn2)c1 has a documented inhibition at 1 µM of ≥ 60%
